# target: SARS-CoV-2 Spike protein receptor-binding domain (RBD) (SARS-CoV-2, UniProt P0DTC2 319-527)
# procedure-details: BLI (Octet), IgG1 captured on anti-human Fc sensors, RBD in solution
attribute-measured: kon

[[record]]
binder = "AB-12 full-length IgG1 (humanized) (antibody, V domains shown) VH: EVQLVQSGAEVKKPGESLKISCKASGYTFTTYWMHWVRQMPGKGLEWMGAIYPGNSDTRYSPSFQGQVTLSVDKSITTAYLQWNSLKASDTAMYFCTREGIPQLLRTLDYWGQGTLVTVSS VL: DIQMTQSPSSLSASVGDRVTITCRASQGISGYLSWLQQKPEKAPKRLIYAASTLQSGVPSRFSGSGSGTDFTLTISSLQPEDFATYYCQQYLSYPWTFGQGTKLEIK"
experimental_value = "113000 M⁻¹ s⁻¹"

[[record]]
binder = "AB-10 full-length IgG1 (humanized) (antibody, V domains shown) VH: QVQLVQSGAEVKKPGASVKVSCKASGYTFTSYWMHWVRQAPGQGLEWMGAIYPGNGDTNYAQKFQGRVTMTADTSISTAYMELSRLRSDDTAVYYCTREGIPQLLNTLDVWGQGTLVTVSS VL: DIQMTQSPSSLSASVGDRVTITCRASQEISGYLNWYQQKPGKAPKRLIYAASSLQSGVPSRFSGSGSGTDFTLTISSLQPEDFATYYCQQYLSYPWTFGQGTKVEIK"
experimental_value = "121000 M⁻¹ s⁻¹"

[[record]]
binder = "AB-5 full-length IgG1 (antibody, V domains shown) VH: EVQLEESGTVLARPGASVKMSCKASGYTFTSYWMHWIKQRPGQGLEWIGAIYPGNGDTNYNQKFKDKAKLTAVKSTSSAYMELSSLTNEDSAVYFCTREGIPQLLNTLDVWGQGTSVTVSS VL: DILMTQSPSSLSASLGERVSLTCRASQEISGYLSWLQEKPDGTIKRLIYAASTLDSGVPKRFSGSRSGSDYSLTISSLESEDFADYYCQQYLSYPWTFGGGTKLEIK"
experimental_value = "82500 M⁻¹ s⁻¹"

[[record]]
binder = "AB-11 full-length IgG1 (humanized) (antibody, V domains shown) VH: EVQLVQSGAEVKKSGESLKISCKASGYTFTTYWMHWVRQMPGKGLEWMGAIYPGNSDTQYSPSFQGQVTLSADKSISTAYLQWSSLKASDTAMYFCTREGIPQLLRTLDYWGQGTLVTVSS VL: EIVLTQSPGTLSLSPGERATLSCRASQEISGYLAWLQQKPGQAPRRLIYAASSLATGIPDRFSGSGSGTDFTLTISRLEPEDFAVYYCLQYLSYPWTFGQGTKVEIK"
experimental_value = "78000 M⁻¹ s⁻¹"

